- system: Peroxisome proliferator-activated receptor gamma (Homo sapiens) (UniProt P37231)
- Sequence (P37231 whole entry, looked up): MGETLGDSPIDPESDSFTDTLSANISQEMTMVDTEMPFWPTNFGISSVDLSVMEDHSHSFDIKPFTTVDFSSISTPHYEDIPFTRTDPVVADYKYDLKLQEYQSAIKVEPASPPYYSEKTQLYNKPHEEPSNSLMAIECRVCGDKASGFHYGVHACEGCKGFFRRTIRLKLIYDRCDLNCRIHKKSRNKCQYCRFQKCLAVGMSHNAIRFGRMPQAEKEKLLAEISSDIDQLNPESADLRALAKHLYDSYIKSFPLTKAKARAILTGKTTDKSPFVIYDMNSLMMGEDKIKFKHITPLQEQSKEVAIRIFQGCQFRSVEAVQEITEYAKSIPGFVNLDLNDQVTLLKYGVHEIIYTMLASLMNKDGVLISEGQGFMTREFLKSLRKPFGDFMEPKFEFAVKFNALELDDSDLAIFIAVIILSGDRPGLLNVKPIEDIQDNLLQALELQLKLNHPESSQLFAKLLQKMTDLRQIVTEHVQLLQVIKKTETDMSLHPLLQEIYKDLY
- assay.summary: OT_PPARg_PPARgSRC1_1440: Odyssey Thera (OT) 24-hour Protein-Complementation Assay for Peroxisome Proliferator-activated Receptor Gamma/ SRC-1 Co-activator (AID 2283388);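 further: nuclear to cytoplasmic ratio of reconstituted Venus YFP fluorescence in fixed imaged cells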
The source made the active and inactive calls. How the source made its calls: active means hit-call score of the fitted dose curve at least 0.9, where 1 is the maximum; inconclusive means response in the unintended direction; inactive means score below 0.9.
Pick from yes (1) for active, no (0) for inactive when you respond.

Observe how each entry below is paired with its result.
CCN(CCO)CCO :: no (0)
O=C(CCl)Nc1ccccc1 :: no (0)
COc1ccccc1N :: no (0)
O=C(O)COc1ccc(Cl)cc1 :: no (0)
CC(C)(C)c1ccccc1O :: no (0)

Hey, what did the test say about O=CCCl ?
no (0)

Hey, what did the test say about COCCl ?
no (0)

Hey, what did the test say about O=C(O)COc1cc(Cl)c(Cl)cc1Cl ?
no (0)

Hey, what did the test say about C=CCN=C=S ?
no (0)

Hey, what did the test say about CCOP(=S)(OCC)O/N=C(\C#N)c1ccccc1 ?
no (0)

Hey, what did the test say about O=S1OC[C@@H]2[C@H](CO1)[C@]1(Cl)C(Cl)=C(Cl)[C@@]2(Cl)C1(Cl)Cl (some centres undefined) ?
no (0)

Hey, what did the test say about O=C(O)C1(c2ccc3c(c2)OC[C@H](Cc2ccc(-c4ccccc4)cc2)[C@H]3O)CCCC1 ?
no (0)

Hey, what did the test say about N#Cc1cccnc1 ?
no (0)

Hey, what did the test say about N#CCCC(Br)(C#N)CBr (centres undefined) ?
no (0)

====

- system: PGR (gene 5241) (UniProt P06401)
- Sequence (P06401 whole entry, looked up): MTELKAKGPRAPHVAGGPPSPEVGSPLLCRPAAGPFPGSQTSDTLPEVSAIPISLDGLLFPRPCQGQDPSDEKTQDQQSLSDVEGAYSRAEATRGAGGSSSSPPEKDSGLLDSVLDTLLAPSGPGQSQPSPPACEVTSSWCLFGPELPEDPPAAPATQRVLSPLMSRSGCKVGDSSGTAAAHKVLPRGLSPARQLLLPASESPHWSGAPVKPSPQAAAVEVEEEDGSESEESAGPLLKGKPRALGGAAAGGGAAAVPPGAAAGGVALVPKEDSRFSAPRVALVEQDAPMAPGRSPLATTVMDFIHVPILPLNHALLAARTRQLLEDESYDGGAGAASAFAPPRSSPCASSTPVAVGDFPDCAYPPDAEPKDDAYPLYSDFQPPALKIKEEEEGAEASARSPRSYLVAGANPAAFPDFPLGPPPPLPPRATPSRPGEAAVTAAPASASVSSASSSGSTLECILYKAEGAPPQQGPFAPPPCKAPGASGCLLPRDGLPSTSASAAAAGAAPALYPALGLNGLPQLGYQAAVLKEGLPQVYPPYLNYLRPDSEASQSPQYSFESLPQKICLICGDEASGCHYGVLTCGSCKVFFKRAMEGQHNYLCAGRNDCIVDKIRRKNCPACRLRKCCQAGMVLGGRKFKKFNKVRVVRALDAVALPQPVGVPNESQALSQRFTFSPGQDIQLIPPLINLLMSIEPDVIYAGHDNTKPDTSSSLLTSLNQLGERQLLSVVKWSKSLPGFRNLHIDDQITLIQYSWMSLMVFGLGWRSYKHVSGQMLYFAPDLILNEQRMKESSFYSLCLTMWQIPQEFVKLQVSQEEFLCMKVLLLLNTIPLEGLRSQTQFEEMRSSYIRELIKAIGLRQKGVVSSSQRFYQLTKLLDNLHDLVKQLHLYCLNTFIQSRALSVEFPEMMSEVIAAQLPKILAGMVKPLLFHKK
- assay.summary: TOX21_PR_LUC_Followup_Antagonist: Tox21 HEK293 Progesterone Receptor (PR) Antagonism Luciferase Follow-Up Assay (AID 2283938);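 further: curve fitted upward as signal gain over DMSO baseline despite antagonist label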
Records with an inconclusive call do not appear. The source made the active and inactive calls. Rule for the calls: active = hit-call score of the fitted dose curve at least 0.9, where 1 is the maximum; inconclusive = response in the unintended direction; inactive = score below 0.9.
Pick from true (active), false (inactive) when you respond.

O=[N+]([O-])c1ccc(Nc2ccccc2)cc1 :: true
CCCSP(=S)(OCC)Oc1ccc(Cl)cc1Cl (stereo not given) :: true
CCCSP(=S)(OCC)Oc1ccc(SC)cc1 (stereo not given) :: false
Nc1ccc(-c2ccccc2)cc1 :: false
CC(C)CC(C)(c1ccc(O)cc1)c1ccc(O)cc1 :: true
O=S(=O)(Oc1ccc(Cl)cc1)c1ccc(Cl)cc1 :: false
CC(O)(CS(=O)(=O)c1ccc(F)cc1)C(=O)Nc1ccc(C#N)c(C(F)(F)F)c1 (stereo not given) :: true
CC(C)(C1CCC(O)CC1)C1CCC(O)CC1 (stereo not given) :: false
Cc1ccccc1OP(=O)(Oc1ccccc1C)Oc1ccccc1C :: false

We now examine a further compound.
Hey, what did the test say about O=S(=O)(c1ccc(Cl)cc1)c1cc(Cl)c(Cl)cc1Cl ?
true

====

- assay.summary: CCTE_Mundy_HCI_Cortical_Synap_Neur_Matur_BPCount: CCTE's Synaptogenesis and Neurite Maturation Assay in rat cortical cells for Branch Point Count, Mundy Lab (AID 2284211)
- Procedure: CCTE_Mundy_HCI_Cortical_Synap&Neurite_Matur is a multiplexed, cell-based-readout assay that uses rat primary cortical cells with measurements taken at 288.33 hours after chemical dosing in a microplate: 96-well plate.CCTE_Mundy_HCI_Cortical_Synap_Neur_Matur_BPCount is one of eight components of the CCTE_Mundy_HCI_Cortical_Synap&Neurite_Matur assay. It measures synaptogenesis and neurite maturation related to number of branch points using High Content Imaging of fluorescently labelled markers.[…] […]
Activity calls are given as the source filed them. How the source made its calls: active means hit-call score of the fitted dose curve at least 0.9, where 1 is the maximum; inactive means score below 0.9.
measured.property: AC50

CNC(=O)CSP(=O)(OC)OC :: inactive
CC1(C)[C@H](C(=O)O[C@H](C#N)c2cccc(Oc3ccccc3)c2)[C@@H]1/C=C(\Cl)C(F)(F)F :: 2.28 µM (active)
CCOCn1c(-c2ccc(Cl)cc2)c(C#N)c(Br)c1C(F)(F)F :: 13.1 µM (active)
CC(C)[C@@H](Nc1ccc(C(F)(F)F)cc1Cl)C(=O)OC(C#N)c1cccc(Oc2ccccc2)c1 (some centres undefined) :: inactive

====

- assay.summary: ATG_DR4_LXR_CIS: Attagene CIS-FACTORIAL HepG2 Assay for human Liver X Receptor (LXR), DR4 submotif (AID 2282929)
- condition.label: HepG2 Attagene DR4 cis-reporter, mRNA transcription; actives raise or lower the signal
The source made the active and inactive calls. The calls were made as follows: active = hit-call score of the fitted dose curve at least 0.9, where 1 is the maximum; inactive = score below 0.9.
Pick from active, inactive when you respond.

Observe how each entry below is paired with its result.
C#C[C@]1(O)CC[C@H]2[C@@H]3CCC4=CC(=O)CC[C@]4(C)[C@H]3CC[C@@]21C :: inactive
COP(=S)(OC)Oc1cc(Cl)c(I)cc1Cl :: active
CC(C)C(C)(N)C#N (configuration not stated) :: inactive

Hey, what did the test say about COC(=O)c1cc(Oc2ccc(Cl)cc2Cl)ccc1[N+](=O)[O-] ?
inactive

Hey, what did the test say about Oc1c(Br)cc(Br)cc1Br ?
inactive

Hey, what did the test say about COc1ccc(N)cc1 ?
inactive

Hey, what did the test say about C1CCC(C2CCCCC2)CC1 ?
inactive

====

- Read-out: Collagen III, COL3A1 (gene 1281)
- assay.summary: BSK_hDFCGF_CollagenIII: BioMAP Diversity Plus: hDFCGF Assay for Collagen III Biomarker Activity (AID 2283056)
- condition.label: primary human foreskin fibroblasts; actives raise or lower the signal
Calls of active or inactive are those of the source. Rule for the calls: active = hit-call score of the fitted dose curve at least 0.9, where 1 is the maximum; inactive = score below 0.9.
measured.property: AC50

Below, 5 compounds whose answers are already recorded.
Cc1c([N+](=O)[O-])c(C)c([N+](=O)[O-])c(C(C)(C)C)c1[N+](=O)[O-] :: inactive
COCC(=O)N(c1c(C)cccc1C)[C@H](C)C(=O)OC :: inactive
CCCCN(CCCC)C(=S)[S-].CCCCN(CCCC)C(=S)[S-].[Ni+2] :: inactive
C=CC(Cl)CCl (stereo unspecified) :: inactive
OC(Cc1ccccc1Cl)(Cn1[nH]cnc1=S)C1(Cl)CC1 (stereo unspecified) :: 9.86 µM (active)

Switching to the query record.
Let me know recorded AC50 for N#CCCC(Br)(C#N)CBr (stereo unspecified) , thanks.
17 µM (active)

====

- assay.summary: ATG_ISRE_CIS: Attagene CIS-FACTORIAL HepG2 Assay for human Interferon Regulatory Factor 1 (IRF1) binding to an Interferon-Stimulated Response Element (ISRE) (AID 2282948)
- condition.label: HepG2 ISRE cis-reporter (Attagene), mRNA transcription readout; actives raise or lower the signal
Calls of active or inactive are those of the source. Rule for the calls: active = hit-call score of the fitted dose curve at least 0.9, where 1 is the maximum; inactive = score below 0.9.
Pick from active, inactive when you respond.

Observe how each entry below is paired with its result.
O=[N+]([O-])c1c2ccccc2cc2ccccc12 :: inactive
Clc1cccc(Cl)c1 :: inactive
O=S1OC[C@@H]2[C@H](CO1)[C@]1(Cl)C(Cl)=C(Cl)[C@@]2(Cl)C1(Cl)Cl (stereo partly specified) :: inactive
CCC(C)(C#N)N=NC(C)(C#N)CC (stereo unspecified) :: inactive
N#Cc1cccnc1 :: inactive
COc1ccc([N+](=O)[O-])cc1O :: inactive
CN(C)[C@@H]1C(=O)C(C(N)=O)=C(O)[C@@]2(O)C(=O)C3=C(O)c4c(O)ccc(Cl)c4[C@@](C)(O)[C@H]3C[C@@H]12 :: inactive
CCCCN(CCCC)C(=S)S :: active
CN(C)c1ccc(N=O)cc1 :: active
C[C@@H]1O[C@@H](O[C@H]2C[C@@H](O)[C@]3(CO)[C@H]4[C@H](O)C[C@]5(C)[C@@H](C6=CC(=O)OC6)CC[C@]5(O)[C@@H]4CC[C@]3(O)C2)[C@H](O)[C@H](O)[C@H]1O :: active

We now examine a further compound.
Hey, what did the test say about Nc1ccc(Br)cc1 ?
inactive

====

- system: Cellular tumor antigen p53 (Homo sapiens)
- assay.summary: TOX21_p53_BLA_p4_ratio: Tox21 HCT-116 p53 Agonism Beta-lactamase Assay, Ratio, Phase 4 (AID 2283601)
Inconclusive results are not listed. Activity calls are given as the source filed them. The calls were made as follows: active = hit-call score of the fitted dose curve at least 0.9, where 1 is the maximum; inconclusive = response in the unintended direction; inactive = score below 0.9.
Pick from y (active), n (inactive) when you respond.

Observe how each entry below is paired with its result.
CCOP(=S)(OCC)O/N=C(\C#N)c1ccccc1 :: n
C[C@H]1C(=O)O[C@@H]2CCN3CC=C(COC(=O)[C@](C)(O)[C@]1(C)O)[C@H]23 :: n

We now examine a further molecule.
Hey, what did the test say about CCOP(=S)(OCC)OP(=S)(OCC)OCC ?
n

====

- assay.summary: APR_HepG2_NuclearSize_72hr: Apredica 72-hour HepG2 Assay for Nuclear Size (AID 2282925)
- condition.label: high-content imaging, actives raise or lower the signal
The source made the active and inactive calls. The calls were made as follows: active = hit-call score of the fitted dose curve at least 0.9, where 1 is the maximum; inactive = score below 0.9.
measured.property: outcome

Below, 4 compounds whose answers are already recorded.
Oc1cc(Cl)c(Cl)cc1Cl :: inactive
N#Cc1cccnc1 :: inactive
COc1ccccc1N :: inactive
Cc1cc(C)cc(C)c1 :: inactive

Let me know recorded outcome for OCCN(CCO)CCO , thanks.
inactive

Let me know recorded outcome for O=C(O)C1(c2ccc3c(c2)OC[C@H](Cc2ccc(-c4ccccc4)cc2)[C@H]3O)CCCC1 , thanks.
inactive

Let me know recorded outcome for CC(C)(C)c1ccccc1O , thanks.
inactive

Let me know recorded outcome for Clc1cccc(Cl)c1Cl , thanks.
inactive
